# method_notes: chemical genetic growth profiling, strain panel (AID 1159580);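 note: tested at 20 µM; growth read once vehicle control cultures reached saturation at 30 °C; 1 = growth at the plate median or of vehicle wells; lower values mean less growth of the strain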
# experimental_setup: S. cerevisiae deletion strains, growth OD, locus YIL125W, strain kgd1
Screen size: about 5,500 compounds; about 2,000 (36%) were called active. Inconclusive results (about 18%) are left out. Cut-off read from the data, not from the text of the source: active = normalized growth mostly below about 0.91 (no sharp cut-off); inconclusive = no clear call, values can overlap the other calls; inactive = mostly above about 0.92. This is one part of the list.
Return exactly one item of active, inactive

molecule: CCCCCCCCCCCCCC(=O)OC1C(C)C2(O)C(C=C(CO)CC3(O)C(=O)C(C)=CC32)C2C(C)(C)C12OC(C)=O (configuration not stated)
assigned_category: inactive

Kindly provide the recorded test outcome for the following molecule: COc1ccc(CCC(=O)c2c(O)cc(O[C@@H]3O[C@H](CO)C(O)[C@H](O)C3O[C@@H]3O[C@@H](C)[C@H](O)[C@@H](O)[C@H]3O)cc2O)cc1O (some centres not stated)
inactive

Kindly provide the recorded test outcome for the following molecule: CC(=O)O[C@H]1C[C@@H](OC(C)=O)C(C)(C)C2C[C@@H](OC(C)=O)[C@]3(C)C(CC[C@@]4(C)[C@H](c5ccoc5)OC(=O)[C@H]5O[C@]543)[C@]21C (some centres not stated)
inactive

Kindly provide the recorded test outcome for the following molecule: CC(=O)OC1CC(OC(C)=O)C2(C)C(CC(OC(C)=O)C3(C)C2CCC2(C)C(c4ccoc4)OC(=O)C4OC423)C1(C)C (configuration not stated)
inactive

Kindly provide the recorded test outcome for the following molecule: Clc1ccc(COC(Cn2ccnc2)c2ccc(Cl)cc2Cl)c(Cl)c1 (configuration not stated)
active

Kindly provide the recorded test outcome for the following molecule: CC(=O)O[C@H]1C[C@@H](OC(C)=O)C(C)(C)C2C[C@@H](O)[C@]3(C)C(CC[C@@]4(C)[C@H](c5ccoc5)OC(=O)[C@H]5O[C@]543)[C@]21C (some centres not stated)
inactive

Kindly provide the recorded test outcome for the following molecule: CN(C)C(=O)Oc1ccc[n+](C)c1
inactive

Kindly provide the recorded test outcome for the following molecule: CC(=O)O[C@H]1CC[C@@]2(C)C(C[C@@H](OC(C)=O)[C@]3(C)C2CC[C@@]2(C)[C@H](c4ccoc4)OC(=O)[C@H]4O[C@]423)C1(C)C (some centres not stated)
inactive

Kindly provide the recorded test outcome for the following molecule: NC1(C(=O)O)CCCC1
inactive

Kindly provide the recorded test outcome for the following molecule: Clc1ccc(CSC(Cn2ccnc2)c2ccc(Cl)cc2Cl)cc1 (configuration not stated)
active

----------
# method_notes: chemical genetic growth profiling, strain panel (AID 1159580);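 note: tested at 20 µM; growth read once vehicle control cultures reached saturation at 30 °C; 1 = growth at the plate median or of vehicle wells; lower values mean less growth of the strain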
# experimental_setup: S. cerevisiae deletion strains, growth OD, locus YLR027C, strain aat2, hits give low values
About 2,000 (36%) of roughly 5,500 compounds were called active. Another 18% or so got no clear call; they are omitted. The list shows a part of the results.
Catalogue of normalized growth values
Answer as a number with no unit attached.

compound: CC12CCC3C(=CCc4cc(O)ccc43)C1CCC2=O (stereo not drawn)
normalized growth: 0.968

compound: COC(=O)[C@@H]1OC(=O)C2OC23[C@@]1(C)CCC1[C@@]2(C)CCC(=O)C(C)(C)C2C[C@@H](OC(C)=O)[C@]13C (stereo partly drawn)
normalized growth: 1.03

compound: C[C@]12CCC3c4ccc(OC(=O)c5ccccc5)cc4CCC3C1CCC2=O (stereo partly drawn)
normalized growth: 0.998

compound: C=C1C(=O)[C@]23[C@H](O)[C@H]1CC[C@H]2[C@@]12CO[C@]3(O)[C@H](O)[C@@H]1C(C)(C)CC[C@@H]2O
normalized growth: 1

compound: Cc1nnc(NS(=O)(=O)c2ccc(N)cc2)s1
normalized growth: 1.01

compound: NCCCCC(=O)O
normalized growth: 1.02

compound: O=C1CCCN1CC#CCN1CCCC1
normalized growth: 1.02

Request the reported normalized growth associated with CC(=O)Oc1ccc2c(c1)CCC1C2CC[C@]2(C)C(=O)CCC12 (stereo partly drawn)
0.983
